Biological target: c-Kit (D816V) (Homo sapiens, UniProt P10721, D816V)
Sequence (P10721 26-976 D816V): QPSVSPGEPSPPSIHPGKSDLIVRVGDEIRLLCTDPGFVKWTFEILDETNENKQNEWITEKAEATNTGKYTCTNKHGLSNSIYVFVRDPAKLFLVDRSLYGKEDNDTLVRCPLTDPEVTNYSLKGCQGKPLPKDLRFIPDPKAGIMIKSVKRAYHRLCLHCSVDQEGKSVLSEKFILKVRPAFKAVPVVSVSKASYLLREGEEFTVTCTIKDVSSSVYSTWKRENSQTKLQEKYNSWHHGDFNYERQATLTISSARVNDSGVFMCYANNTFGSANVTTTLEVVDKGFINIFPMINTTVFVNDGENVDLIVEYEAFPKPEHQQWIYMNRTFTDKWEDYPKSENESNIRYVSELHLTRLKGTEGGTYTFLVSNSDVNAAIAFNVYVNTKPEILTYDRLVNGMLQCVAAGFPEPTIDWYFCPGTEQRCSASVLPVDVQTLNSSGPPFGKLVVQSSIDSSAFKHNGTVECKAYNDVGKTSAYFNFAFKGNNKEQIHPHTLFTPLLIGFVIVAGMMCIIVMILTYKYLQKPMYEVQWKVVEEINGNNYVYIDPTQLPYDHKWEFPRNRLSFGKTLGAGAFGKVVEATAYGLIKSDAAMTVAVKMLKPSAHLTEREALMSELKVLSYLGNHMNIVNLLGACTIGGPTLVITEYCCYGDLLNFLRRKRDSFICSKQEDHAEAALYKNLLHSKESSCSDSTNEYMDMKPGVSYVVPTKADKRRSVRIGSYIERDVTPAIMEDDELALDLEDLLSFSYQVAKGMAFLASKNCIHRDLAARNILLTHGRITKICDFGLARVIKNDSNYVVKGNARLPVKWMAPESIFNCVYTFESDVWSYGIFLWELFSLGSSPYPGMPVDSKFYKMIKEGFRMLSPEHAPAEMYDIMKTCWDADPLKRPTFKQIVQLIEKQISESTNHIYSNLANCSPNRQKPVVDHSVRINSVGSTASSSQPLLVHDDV
Test: KinomeScan competition binding assay
readout_kind: Kd (nM)
Number only, in nM; omit the unit.

Exercise: Name the recorded Kd for Nc1nc(Nc2ccc3c(c2)CC[C@@H](N2CCCC2)CC3)nn1-c1cc2c(nn1)-c1ccccc1CCC2 .
Solution: 10.2

###

Biological target: Stk10 (Homo sapiens, UniProt O94804)
Sequence (O94804 whole entry): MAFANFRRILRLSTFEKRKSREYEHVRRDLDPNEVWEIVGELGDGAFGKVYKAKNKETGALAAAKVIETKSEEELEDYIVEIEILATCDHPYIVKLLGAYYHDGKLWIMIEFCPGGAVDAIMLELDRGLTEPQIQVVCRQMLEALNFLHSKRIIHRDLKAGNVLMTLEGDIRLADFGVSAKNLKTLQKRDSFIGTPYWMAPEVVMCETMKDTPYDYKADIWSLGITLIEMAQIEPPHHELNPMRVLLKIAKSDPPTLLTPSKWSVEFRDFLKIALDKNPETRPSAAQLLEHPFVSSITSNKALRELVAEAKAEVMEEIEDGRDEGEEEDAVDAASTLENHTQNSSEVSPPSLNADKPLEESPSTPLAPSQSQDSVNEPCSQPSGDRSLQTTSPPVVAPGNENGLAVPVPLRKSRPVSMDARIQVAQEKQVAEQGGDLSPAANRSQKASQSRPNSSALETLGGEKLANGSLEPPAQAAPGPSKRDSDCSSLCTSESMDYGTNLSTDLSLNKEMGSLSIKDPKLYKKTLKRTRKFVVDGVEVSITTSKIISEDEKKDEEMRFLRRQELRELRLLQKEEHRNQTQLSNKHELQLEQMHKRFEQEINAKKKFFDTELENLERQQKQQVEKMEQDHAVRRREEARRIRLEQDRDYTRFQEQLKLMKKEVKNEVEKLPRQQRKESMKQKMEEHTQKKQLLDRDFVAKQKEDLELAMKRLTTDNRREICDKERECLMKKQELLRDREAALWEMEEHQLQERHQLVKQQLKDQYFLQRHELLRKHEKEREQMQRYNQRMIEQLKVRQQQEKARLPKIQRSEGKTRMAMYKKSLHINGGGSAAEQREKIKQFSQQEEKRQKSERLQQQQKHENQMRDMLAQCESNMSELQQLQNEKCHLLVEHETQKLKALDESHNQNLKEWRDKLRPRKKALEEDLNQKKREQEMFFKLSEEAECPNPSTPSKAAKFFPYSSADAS
Test: KinomeScan competition binding assay
Set-up: purchased DiscoveRx Corporation (KinomeScan service)
readout_kind: Kd (nM)
Number only, in nM; omit the unit.

Exercise: Name the recorded Kd for Nc1nc(Nc2ccc3c(c2)CC[C@@H](N2CCCC2)CC3)nn1-c1cc2c(nn1)-c1ccccc1CCC2 .
Solution: 9.2
